Would you kindly list superoxide response (% of plate) for each of these molecules?
assay: superoxide lowering in aged yeast cells, pilot screen, validation compound set (AID 2706);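 note: yeast exposed to compound for one week at 30 degrees C before staining; 100% = mean of all compound wells on the same plate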
run_conditions: S. cerevisiae aging, superoxide DHE fluorescence; at 10 µM; hits give low values
Numbers only, in %.

Look over these answered cases.
| molecule | parameter_measured | measured_result |
| --- | --- | --- |
| c1ccc2c(c1)OCC(C1=NCCN1)O2 (configuration not stated) | superoxide response (% of plate) | 90.8 |
| C[C@H]1OC[C@@H](C[N+](C)(C)C)O1 | superoxide response (% of plate) | 95.3 |
| [N-]=[N+]=CC(=O)OC[C@H](N)C(=O)O | superoxide response (% of plate) | 97.4 |
| Cc1ccc(-n2c(C)cc(/C=C3/C(=O)NC(=O)N(C)C3=O)c2C)cc1 | superoxide response (% of plate) | 94.5 |

Items follow; give superoxide response (% of plate) for each.
1. Cc1nc2ccccc2c(=O)n1-c1ccc(C(=O)O)cc1
2. c1ccc2c3c([nH]c2c1)CNCC3
3. COP(=S)(OC)SCN1C(=O)c2ccccc2C1=O
4. O=C1NC(=O)C2(Cc3ccccc3N3CCCC32)C(=O)N1c1ccc(Cl)cc1 (configuration not stated)
5. O=c1[nH]c2ccccc2n1CCCN1CCC(n2c(=O)[nH]c3cc(Cl)ccc32)CC1
6. Cc1cc(Cl)ccc1OC(C)C(=O)O (configuration not stated)
7. C=C1CC[C@@]2(O)[C@H]3Cc4ccc(O)c5c4[C@@]2(CCN3CC2CC2)[C@H]1O5

1: 96.8; 2: 113; 3: 97.7; 4: 104; 5: 114; 6: 135; 7: 98.9

Reported superoxide response (% of plate), molecule c1cnc2c(c1)ccc1ncccc12 : ____
83.3
